- Test system: HEK-293T
- testProtocol: Multiplex assay against HEK293T;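 also: share of the cells with healthy nuclei that show this phenotype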
- Type: toxicity, cell-based
- condition: human, 12 h, 1 µM, compound concentration 1 uM, replicate 2
Please enter Criterion met where Population Tubulin-Different-Phenotype (%) is greater than or equal to 20%, and Criterion not met where it is lower.

-- ask Confirm if Population Tubulin-Different-Phenotype (%) reported for the compound Cl.N#Cc1ccc2[nH]cc(CCCCN3CCN(c4ccc5oc(C(N)=O)cc5c4)CC3)c2c1 [VILAZODONE HYDROCHLORIDE] is 20% or above.
-- reply Criterion met

-- ask Confirm if Population Tubulin-Different-Phenotype (%) reported for the compound COc1ncc(-c2ccc3nccc(-c4ccnnc4)c3c2)cc1NS(=O)(=O)c1ccc(F)cc1F is 20% or above.
-- reply Criterion not met

-- ask Confirm if Population Tubulin-Different-Phenotype (%) reported for the compound CN1CCN(CCOc2cc(OC3CCOCC3)c3c(Nc4c(Cl)ccc5c4OCO5)ncnc3c2)CC1 is 20% or above.
-- reply Criterion met

-- ask Confirm if Population Tubulin-Different-Phenotype (%) reported for the compound C[C@@]1(C(=O)Nc2ccc(F)nc2)CCCN1c1nc(Nc2cc(C3CC3)n[nH]2)c2cccn2n1 is 20% or above.
-- reply Criterion met

-- ask Confirm if Population Tubulin-Different-Phenotype (%) reported for the compound Cn1cc(-c2[nH]c3cc(NC(=O)[C@H](N)C4CCCCC4)cc4c3c2C=NNC4=O)cn1 is 20% or above.
-- reply Criterion met

-- ask Confirm if Population Tubulin-Different-Phenotype (%) reported for the compound CCN(CC)CCCCNc1ncc2cc(-c3cc(OC)cc(OC)c3)c(NC(=O)NC(C)(C)C)nc2n1 is 20% or above.
-- reply Criterion met

-- ask Confirm if Population Tubulin-Different-Phenotype (%) reported for the compound C=CC(=O)Nc1cccc(C(=O)Nc2ccc(Nc3cc(-c4[nH]c(SC)nc4C)ccn3)cc2)c1 is 20% or above.
-- reply Criterion not met

-- ask Confirm if Population Tubulin-Different-Phenotype (%) reported for the compound CN(C)C(=O)N[C@H]1CC[C@H](CCN2CCN(c3cccc(Cl)c3Cl)CC2)CC1.Cl [CARIPRAZINE HYDROCHLORIDE] is 20% or above.
-- reply Criterion met
